Where do the numbers come from? From patent US20250073210A1.

Test: Preliminary cytotoxicity assay (WST-8 reduction, viability and morphological observations)
Type: cell-based, human
Details: human, normal human epidermal keratinocytes (NHEK), single replicates, 180 μM, 24 hours; read-out: Viability (%)
result_type: viability at 24 h, 180 µM (%)
API: value field is a number in %; no unit string.

Please look up its viability at 24 h, 180 µM: Oc1ccc(C=Cc2cc(O)cc(O)c2)cc1 [Resveratrol] 32

----------
Test: Preliminary cytotoxicity assay (WST-8 reduction, viability and morphological observations)
Assay type: cell-based, human
Settings: human, Viability (%)
result_type: viability at 24 h, 540 µM (%)
API: value field is a number in %; no unit string.

Please look up its viability at 24 h, 540 µM: "C[N+](C)(C)[C@@H](Cc1c[nH]c(=S)[nH]1)C(=O)[O-]" 100

----------
Test: Preliminary cytotoxicity assay (WST-8 reduction, viability and morphological observations)
Assay type: cell-based, human
Details: human, normal human epidermal keratinocytes (NHEK), 2.2 μM, 24 hours of incubation; read-out: Viability Mean (%)
result_type: viability at 24 h, 2.2 µM (%)
API: value field is a number in %; no unit string.

Please look up its viability at 24 h, 2.2 µM: "Oc1ccc(C=Cc2cc(O)cc(O)c2)cc1" 106

----------
Experiment: Preliminary cytotoxicity assay (WST-8 reduction, viability and morphological observations)
Assay type: cell-based, human
Details: human, normal human epidermal keratinocytes (NHEK), 60 μM, 24 hours of incubation; read-out: Viability Mean (%)
result_type: viability at 24 h, 60 µM (%)
API: value field is a number in %; no unit string.

Please look up its viability at 24 h, 60 µM: "Oc1ccc(C=Cc2cc(O)cc(O)c2)cc1" 65

----------
Assay: Preliminary cytotoxicity assay (WST-8 reduction, viability and morphological observations)
Format: cell-based, human
Conditions: human, normal human epidermal keratinocytes (NHEK), 20 μM, 24 hours of incubation; read-out: Viability Mean (%)
result_type: viability at 24 h, 20 µM (%)
API: value field is a number in %; no unit string.

Please look up its viability at 24 h, 20 µM: "Oc1ccc(C=Cc2cc(O)cc(O)c2)cc1" 93

----------
Experiment: Preliminary cytotoxicity assay (WST-8 reduction, viability and morphological observations)
Type: cell-based, human
Conditions: human, normal human epidermal keratinocytes (NHEK), single replicates, 0.741 μM, 24 hours; read-out: Viability (%)
result_type: viability at 24 h, 0.741 µM (%)
API: value field is a number in %; no unit string.

Please look up its viability at 24 h, 0.741 µM: "Oc1ccc(C=Cc2cc(O)cc(O)c2)cc1" 102

----------
Experiment: Preliminary cytotoxicity assay (WST-8 reduction, viability and morphological observations)
Type: cell-based, human
Conditions: human, Viability (%)
result_type: viability at 24 h, 4860 µM
Express your answer as a number followed by its unit.

Please look up its viability at 24 h, 4860 µM: C[N+](C)(C)[C@@H](Cc1c[nH]c(=S)[nH]1)C(=O)[O-] [L-Ergothioneine] 82%

----------
Assay: Preliminary cytotoxicity assay (WST-8 reduction, viability and morphological observations)
Type: cell-based, human
Conditions: human, Viability Mean (%)
result_type: viability at 24 h, 540 µM
Express your answer as a number followed by its unit.

Please look up its viability at 24 h, 540 µM: C[N+](C)(C)[C@@H](Cc1c[nH]c(=S)[nH]1)C(=O)[O-] [L-Ergothioneine] 66%
